Assay: Hair nuance test
Set-up: key: CIELAB L*, a*, b* coordinates
Settings: Type C (Oxidative with coupler resorcinol)
Please note: b* exactly at 4 is No. Only values below 4 get Yes.

Take a look at these entries with their results.
Nc1ccc(N)c(OCCO)c1 | No
COC(COc1cc(N)ccc1N)OC | No
C=C(C)Oc1cc(N)ccc1N | Yes
CC(O)COc1cc(N)ccc1N (stereo not shown) | No
COCCOCCOc1cc(N)ccc1N | Yes

Query string: Consider `COCOc1cc(N)ccc1N` . Does its b* lie strictly below 4?
Result string: No

Query string: Decide: b* of `CCC(=O)COc1cc(N)ccc1N` strictly below 4?
Result string: No

Query string: Dear colleague, could you confirm whether b* of CCOCOc1cc(N)ccc1N [Compound N3, 2-(ethoxymethoxy)benzene-1,4-diamine] falls below 4? Thanks.
Result string: Yes

Query string: Quick check: does `CNCCOc1cc(N)ccc1N` have b* under 4?
Result string: No

Query string: Bench note: check whether Nc1ccc(N)c(OCC2CO2)c1 (stereo not shown) shows b* below 4
Result string: Yes

Query string: is_below(b*, 4) for `COCCOc1cc(N)ccc1N` ?
Result string: Yes

Query string: Bench note: check whether `Nc1ccc(N)c(OCOCO)c1` shows b* below 4
Result string: Yes

###

Some compounds, each annotated with its measured Recovered in skin outside diffusion area.
Test: Skin permeation study, Franz diffusion cell
Assay type: in vitro ADME, porcine
Conditions: mass balance, 8 h

CC(O)COc1cc(N)ccc1N (stereo not shown) | 0.003 % of applied compound dose
CCC(=O)COc1cc(N)ccc1N | 0.002 % of applied compound dose
COC(COc1cc(N)ccc1N)OC | 0.0015 % of applied compound dose

Now look at this one.
Query string: Which Recovered in skin outside diffusion area value is on record for `COCCOc1cc(N)ccc1N` ?
Result string: 0.007 % of applied compound dose

###

Experiment: Hair nuance test
Conditions: Type C (Oxidative with coupler resorcinol)
Measured property: ΔH (difference in colour tone)
Output spec: single numeric token, no unit.

# annotated cases, reported ΔH (difference in colour tone) shown
CNCCOc1cc(N)ccc1N | 4.84
COCOc1cc(N)ccc1N | 17.7
COC(COc1cc(N)ccc1N)OC | 19.3

Then this compound:
Query string: Give the measured ΔH (difference in colour tone) of `Nc1ccc(N)c(OCOCO)c1` .
Result string: 1.49

###

Assay: Hair nuance test
Set-up: key: CIELAB L*, a*, b* coordinates
Conditions: Type C (Oxidative with coupler resorcinol)
Let's look at some molecules and their measured L*.
Output spec: single numeric token, no unit.

COC(COc1cc(N)ccc1N)OC | 21
CCOCOc1cc(N)ccc1N [Compound N3, 2-(ethoxymethoxy)benzene-1,4-diamine] | 17
COCOc1cc(N)ccc1N | 21
C=C(C)Oc1cc(N)ccc1N | 11
COCCOCCOc1cc(N)ccc1N | 16

Query string: Find the recorded L* belonging to `N#CCOc1cc(N)ccc1N` and report it.
Result string: 13

Query string: For the molecule Nc1ccc(N)c(OCC2CO2)c1 (centres unmarked) , what L* is on record?
Result string: 22

Query string: Item under review: CC(O)COc1cc(N)ccc1N (centres unmarked) . Reported L*?
Result string: 30

Query string: Item under review: `CCC(=O)COc1cc(N)ccc1N` . Reported L*?
Result string: 32

Query string: Entry under review: `COCCOc1cc(N)ccc1N` . Reported L*?
Result string: 12.3

Query string: Recorded L* of `Nc1ccc(N)c(OCOCO)c1` , please.
Result string: 10
